# measured target: Ribosomal protein S6 kinase alpha-2 (Homo sapiens) (UniProt Q15349);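 also: reported value is the mean percent inhibition of RSK3, from the GSK PKIS screening panel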
# Sequence (Q15349 whole entry): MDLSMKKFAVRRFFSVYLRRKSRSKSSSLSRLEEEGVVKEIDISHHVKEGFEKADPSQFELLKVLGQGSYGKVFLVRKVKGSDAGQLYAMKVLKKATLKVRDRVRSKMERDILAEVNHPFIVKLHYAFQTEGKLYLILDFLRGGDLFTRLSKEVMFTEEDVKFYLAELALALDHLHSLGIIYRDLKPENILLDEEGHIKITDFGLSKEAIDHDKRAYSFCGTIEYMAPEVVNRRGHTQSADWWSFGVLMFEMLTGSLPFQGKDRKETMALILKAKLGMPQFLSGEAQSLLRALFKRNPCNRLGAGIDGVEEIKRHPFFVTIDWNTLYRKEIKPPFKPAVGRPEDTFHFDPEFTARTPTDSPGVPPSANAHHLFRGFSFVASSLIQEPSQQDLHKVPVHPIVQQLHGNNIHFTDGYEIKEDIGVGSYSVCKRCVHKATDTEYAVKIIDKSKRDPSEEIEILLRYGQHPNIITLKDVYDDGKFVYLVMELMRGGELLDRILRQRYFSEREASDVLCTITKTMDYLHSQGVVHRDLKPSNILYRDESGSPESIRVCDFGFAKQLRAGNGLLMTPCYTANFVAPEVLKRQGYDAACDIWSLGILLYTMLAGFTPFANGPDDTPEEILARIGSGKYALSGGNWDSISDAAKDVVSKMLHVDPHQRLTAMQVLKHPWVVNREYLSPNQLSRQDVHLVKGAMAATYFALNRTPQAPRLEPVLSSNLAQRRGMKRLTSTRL
# recorded conditions: at 0.1 µM
readout label: inhibition

>>> test_result("Fc1ccc(-c2cc(-c3c[nH]nc3-c3ccccn3)ccn2)cc1")
"1.61%"
>>> test_result("Nc1nc(-c2cccc(Cl)c2)c(-c2ccc3ncccc3n2)s1")
"3.04%"
>>> test_result("CS(=O)(=O)CCNCc1coc(-c2ccc3ncnc(Nc4ccc(OCc5ccccc5)cc4)c3c2)c1")
"3.38%"
>>> test_result("NS(=O)(=O)c1ccc(Nc2ncc(-c3ccccc3)o2)cc1")
"2.5%"
>>> test_result("COc1ccc(-c2cc3c(N)ncnc3o2)cc1")
"-0.65%"
>>> test_result("CCn1c(-c2nonc2N)nc2c(C#CC(C)(C)O)nc(OC[C@H](N)c3ccccc3)cc21")
"3.19%"
>>> test_result("COC(=O)Nc1nc2ccc(S(=O)(=O)c3ccc(NC(=O)Nc4cc(C(F)(F)F)ccc4F)cc3)cc2[nH]1")
"1.99%"
>>> test_result("COc1cc2c(cc1Nc1nc(Nc3ccsc3C(N)=O)c3cc[nH]c3n1)N(C(=O)CN(C)C)CCC2(C)C")
"8.55%"
>>> test_result("CN1CCC(n2cnc(-c3ccc(F)cc3)c2-c2ccnc(N)n2)CC1")
"1.52%"
>>> test_result("COc1ccc(-c2oc3ncnc(N)c3c2-c2ccc(NC(=O)Nc3cc(C(F)(F)F)ccc3F)cc2)cc1")
"1.67%"
>>> test_result("Nc1nc(-c2ccc(F)cc2)c(-c2ccc3ncccc3n2)s1")
"1.93%"
>>> test_result("CC(C)COC(=O)c1ccc2c(c1)/C(=C/Nc1ccc(S(N)(=O)=O)cc1)C(=O)N2")
"5.76%"
>>> test_result("O=C(Nc1n[nH]c2cc(-c3ccc(F)cc3)ccc12)C1CC1")
"3.68%"
>>> test_result("CN(C)CCOc1ccc(-c2nc(-c3ccncc3)c(-c3ccc4c(c3)CC/C4=N\\O)[nH]2)cc1")
"1.9%"

* * *

This section presents compounds with their documented inhibition values.
# System: Mast/stem cell growth factor receptor Kit (Homo sapiens), P10721 [T670I]
# Sequence (P10721 whole entry T670I): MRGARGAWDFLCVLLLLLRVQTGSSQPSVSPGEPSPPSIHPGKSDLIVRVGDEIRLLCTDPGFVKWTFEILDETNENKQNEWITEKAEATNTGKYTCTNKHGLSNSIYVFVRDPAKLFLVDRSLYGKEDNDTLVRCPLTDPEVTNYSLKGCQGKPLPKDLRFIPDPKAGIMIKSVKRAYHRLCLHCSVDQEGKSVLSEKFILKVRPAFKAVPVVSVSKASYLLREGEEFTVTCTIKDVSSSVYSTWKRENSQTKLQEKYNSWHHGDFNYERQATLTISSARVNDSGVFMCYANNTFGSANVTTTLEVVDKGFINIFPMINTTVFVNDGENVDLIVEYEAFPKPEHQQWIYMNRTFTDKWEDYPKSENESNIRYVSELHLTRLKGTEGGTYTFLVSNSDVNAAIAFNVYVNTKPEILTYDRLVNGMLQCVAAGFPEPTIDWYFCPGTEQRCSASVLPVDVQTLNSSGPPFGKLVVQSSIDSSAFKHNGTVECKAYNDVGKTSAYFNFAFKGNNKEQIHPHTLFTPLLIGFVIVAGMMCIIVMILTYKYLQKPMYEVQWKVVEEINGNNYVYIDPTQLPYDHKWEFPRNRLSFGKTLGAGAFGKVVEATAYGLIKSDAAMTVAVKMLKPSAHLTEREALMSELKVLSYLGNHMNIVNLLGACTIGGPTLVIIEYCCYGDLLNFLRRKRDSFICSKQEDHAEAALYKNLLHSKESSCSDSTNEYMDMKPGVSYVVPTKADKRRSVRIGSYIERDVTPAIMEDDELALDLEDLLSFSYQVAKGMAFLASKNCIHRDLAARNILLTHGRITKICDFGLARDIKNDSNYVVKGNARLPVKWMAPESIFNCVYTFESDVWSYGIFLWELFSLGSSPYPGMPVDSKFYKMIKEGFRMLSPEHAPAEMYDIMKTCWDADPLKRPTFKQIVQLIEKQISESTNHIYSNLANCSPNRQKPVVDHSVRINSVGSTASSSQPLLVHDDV
# recorded conditions: at 0.1 µM
readout label: inhibition (%)

>>> test_result("O=S(=O)(CCNCc1ccc(-c2ccc3ncnc(Nc4ccc(OCc5cccc(F)c5)c(Cl)c4)c3c2)o1)c1ccccc1")
3.42
>>> test_result("N#Cc1c(NC(=O)c2ccc(F)cc2)sc2c1CCCC2")
-0.92
>>> test_result("Fc1cccc(COc2ccc(Nc3ncnc4sc(-c5ccco5)cc34)cc2Cl)c1")
2.63
>>> test_result("CS(=O)(=O)CCNCc1ccc(-c2ccc3ncnc(Nc4ccc(OCc5ccccc5)c(C(F)(F)F)c4)c3c2)o1")
3.39
>>> test_result("COC(=O)Nc1nc2ccc(S(=O)(=O)c3ccc(NC(=O)Nc4cc(C(F)(F)F)ccc4F)cc3)cc2[nH]1")
1.09
>>> test_result("CNC(=O)c1cc(-c2ccc(F)cc2)cc(-c2ccc(S(=O)(=O)N3CCCC3)cc2)c1N")
3.02
>>> test_result("CCNC(=O)O[C@H]1CN[C@H](C#Cc2cc3ncnc(Nc4ccc(OCc5cccc(F)c5)c(Cl)c4)c3s2)C1")
2.76
>>> test_result("CC1=C(C(=O)Nc2cc(Cl)c3[nH]ncc3c2)C(c2ccc(C(F)(F)F)cc2)CC(=O)N1 (centres undefined)")
2.93
>>> test_result("COc1cc(N2CCN(C(C)C)CC2)ccc1Nc1nc(Nc2ccc(F)cc2C(N)=O)c2cc[nH]c2n1")
-2.37
>>> test_result("CCCN1CCC(c2ccc(Nc3nc(Nc4cc(F)ccc4C(N)=O)c4cc[nH]c4n3)c(OC)c2)CC1")
4.05
>>> test_result("c1ccc(COc2ccc(Nc3ncnc4ccc(-c5ccco5)cc34)cc2)cc1")
0.67
>>> test_result("CNC(=O)c1cncc(/C=C/c2ccccc2Cl)c1")
-1.89
>>> test_result("CC(=O)NCc1cccc(C#Cc2cncnc2Nc2ccc(OCc3cccc(F)c3)c(Cl)c2)c1")
1.52
>>> test_result("COc1ccc(-c2cc3c(N)ncnc3o2)cc1")
-0.3
